system: recombinant human insulin (Humulin) (Homo sapiens)
Sequence (P01308 with tags, fused parts or gaps): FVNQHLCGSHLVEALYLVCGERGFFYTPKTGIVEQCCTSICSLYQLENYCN
Sequence (P01308 with tags, fused parts or gaps): as above
assay-procedure: UV spectroscopy binding of sex hormones to recombinant human insulin (Humulin)
Where a name gives a salt, the structure may show the parent alone.
endpoint-label: pKd
Numbers only, as −log10 of the molar value.

compound="C[C@]12CCC(=O)C=C1CC[C@@H]1[C@@H]2[C@@H](O)C[C@@]2(C)[C@H]1CC[C@]2(O)C(=O)CO [Hydrocortisone]" endpoint_label=pKd value_reported=4.20
compound="C[C@]12C[C@H](O)[C@H]3[C@@H](CCC4=CC(=O)CC[C@@]43C)[C@@H]1CC[C@@H]2C(=O)CO [Corticosterone]" endpoint_label=pKd value_reported=4.68
compound="C[C@]12CC[C@@H]3c4ccc(O)cc4CC[C@H]3[C@@H]1CC[C@@H]2O [17β-Estradiol (E2), 17β-Estradiol]" endpoint_label=pKd value_reported=7.92

Hi! Can you tell me pKd for each of these compounds?
1. C[C@]12CC[C@@H]3c4ccc(O)cc4CC[C@H]3[C@@H]1CC[C@H]2O [17α-Estradiol]
2. O=C(c1ccc(OCCN2CCCCC2)cc1)c1c(-c2ccc(O)cc2)sc2cc(O)ccc12 [Raloxifene, Raloxifene HCl]
3. C[C@]12CC[C@@H]3c4ccc(O)cc4CC[C@H]3[C@@H]1CCC2=O [Estrone]

[5.00, 3.89, 5.90]
